Sourced from patent US20240116946A1

# target.under.test: recombinant SARS-CoV-2 Main protease (Mpro) (Severe acute respiratory syndrome coronavirus 2 (2019-nCoV) (SARS-CoV-2), UniProt P0DTD1)
# assay.remarks: Cov Mpro Biochemical IC50 Assay
# reported.conditions: recombinant SARS-CoV-2 Mpro, fluorogenic peptide substrate; read-out: MPro IC50
recorded.endpoint: pIC50
Answers are plain numbers, as −log10 of the molar value.

Please review the entries below; each comes with its answer.
Can you share its pIC50? I mean this compound: O=c1[nH]c2cc(-c3ccccc3Cl)sc2c(=O)n1-c1cnccc1C1CC1
7.14

Can you share its pIC50? I mean this compound: COc1cccc(-c2ccc3c(=O)n(-c4cncc5ccccc45)c(=O)[nH]c3c2)c1Cl
5.13

Can you share its pIC50? I mean this compound: COc1ccc(Cl)c(-c2cc3[nH]c(=O)n(-c4cncc5ccccc45)c(=O)c3cc2OC)c1
7.24

Hi! Can you tell me pIC50 for each of these compounds?
1. Cc1nn(C2CCN(C(=O)OC(C)(C)C)CC2)cc1-c1cccc(Cl)c1-c1ccc2c(=O)n(-c3cncc4ccccc34)c(=O)[nH]c2c1
2. O=c1[nH]c2cc(-c3ccc(F)cc3Cl)ccc2c(=O)n1-c1cncc2ccccc12
3. NC(=O)c1cc(-c2cccc(Cl)c2-c2ccc3c(=O)n(-c4cncc5ccccc45)c(=O)[nH]c3c2)ccc1Cl
4. NC(=O)COc1cccc(Cl)c1-c1ccc2c(=O)n(-c3cncc4ccccc34)c(=O)[nH]c2c1
5. O=c1[nH]c2cc(-c3c(Cl)cccc3CO)ccc2c(=O)n1-c1cncc2ccccc12

[7.44, 6.23, 7.95, 6.67, 6.67]

Hi! Can you tell me pIC50 for each of these compounds?
1. COc1ccc(C#N)c(-c2ccc3c(=O)n(-c4cncc5cccnc45)c(=O)[nH]c3c2)c1
2. Cc1ncccc1-c1cc2[nH]c(=O)n(-c3cncc4ccccc34)c(=O)c2s1
3. Cc1ncc(-c2cccc(Cl)c2-c2ccc3c(=O)n(-c4cncc5ccccc45)c(=O)[nH]c3c2)n1C
4. O=c1[nH]c2cc(-c3ccccc3)cnc2c(=O)n1-c1cncc2ccccc12
5. O=C1NCc2cc(-c3cccc(Cl)c3-c3ccc4c(=O)n(-c5cncc6ccccc56)c(=O)[nH]c4c3)ccc21
6. Cc1cc(-c2cccc(Cl)c2-c2ccc3c(=O)n(-c4cncc5ccccc45)c(=O)[nH]c3c2)ccc1C(N)=O

1. 7.68
2. 6.59
3. 7.38
4. 6.32
5. 7.71
6. 7.74

----------
Consider the following compounds; for each one, report its IC50.
# target.under.test: recombinant SARS-CoV-2 Main protease (Mpro) (Severe acute respiratory syndrome coronavirus 2 (2019-nCoV) (SARS-CoV-2), UniProt P0DTD1)
# assay.remarks: Cov Mpro Biochemical IC50 Assay
# reported.conditions: recombinant SARS-CoV-2 Mpro 7.5 nM, fluorogenic peptide substrate 40 μM; read-out: MPro IC50
Give bare numbers, in nM.

Please review the entries below; each comes with its answer.
Can you share its IC50? I mean this compound: Cc1nc2cncc(-n3c(=O)c4sc(-c5ccccc5C#N)cc4n(CCC#N)c3=O)c2n1C
93.3

Can you share its IC50? I mean this compound: COCCNc1ccc2cncc(-n3c(=O)[nH]c4cc(-c5ccccc5Cl)sc4c3=O)c2c1
6.9

Can you share its IC50? I mean this compound: Cc1cncc(-n2c(=O)c3sc(-c4ccccc4C#N)cc3n(CCC#N)c2=O)c1
9.81

Hi! Can you tell me IC50 for each of these compounds?
1. CCn1ncc2cncc(-n3c(=O)[nH]c4cc(-c5cc(OC)c(F)cc5Cl)sc4c3=O)c21
2. N#CCn1c(=O)n(-c2cncc3ccccc23)c(=O)c2sc(-c3c(Cl)cccc3-c3cncc(C#N)c3)cc21
3. COc1cc(-c2cc3c(s2)c(=O)n(-c2cncc4nc(C)n(C5CC5)c24)c(=O)n3CCC#N)c(Cl)cc1F
4. COC1CCN(c2ccc3cncc(-n4c(=O)[nH]c5cc(-c6ccccc6Cl)sc5c4=O)c3c2)CC1
5. Cn1c(C(F)(F)F)nc2cncc(-n3c(=O)c4sc(-c5ccccc5C#N)cc4n(CCC#N)c3=O)c21

15.1
4.49
4.1
3.84
263

Hi! Can you tell me IC50 for each of these compounds?
1. COc1cc(-c2cc3c(s2)c(=O)n(-c2cncc4ccncc24)c(=O)n3CCC#N)c(Cl)cc1F (single isomer, unassigned) [Example 1098]
2. COc1cc(-c2cc3[nH]c(=O)n(-c4cncc5cc(C#N)sc45)c(=O)c3s2)c(Cl)cc1F
3. COc1cc(-c2cc3c(s2)c(=O)n(-c2cncc4nn(C)c(C)c24)c(=O)n3CCC#N)c(Cl)cc1F (single isomer, unassigned) [Example 1041]

1. 3.81
2. 14.5
3. 2.99

----------
# target.under.test: recombinant SARS-CoV-2 Main protease (Mpro) (Severe acute respiratory syndrome coronavirus 2 (2019-nCoV) (SARS-CoV-2))
# assay.remarks: Cov Mpro Biochemical IC50 Assay
# reported.conditions: recombinant SARS-CoV-2 Mpro 7.5 nM, fluorogenic peptide substrate 40 μM; read-out: MPro IC50
pIC50: −log10 of the molar value.
Classify by measured pIC50: true if it is equal to or exceeds 8, false if it is smaller.

Check if pIC50 >= 8 (inclusive). Item: COc1cc(-c2cc3c(s2)c(=O)n(-c2cncc4cnn(C)c24)c(=O)n3CCC#N)c(Cl)cc1F (single isomer, unassigned) [Example 644]
true

----------
# target.under.test: recombinant SARS-CoV-2 Main protease (Mpro) (Severe acute respiratory syndrome coronavirus 2 (2019-nCoV) (SARS-CoV-2), UniProt P0DTD1)
# assay.remarks: Cov Mpro Biochemical IC50 Assay
# reported.conditions: recombinant SARS-CoV-2 Mpro 7.5 nM, fluorogenic peptide substrate 40 μM; read-out: MPro IC50
recorded.endpoint: pIC50
One number for each entry, as −log10 of the molar value.

Please review the entries below; each comes with its answer.
Can you share its pIC50? I mean this molecule: Cn1cc(-c2cccc(Cl)c2-c2cc3[nH]c(=O)n(-c4cncc5ccccc45)c(=O)c3s2)c(C(F)(F)F)n1 (single isomer, unassigned) [Example 447]
8.38

Can you share its pIC50? I mean this molecule: COc1cc(-c2cc3c(s2)c(=O)n(-c2cncc4ncn(C)c24)c(=O)n3CCC#N)c(Cl)cc1F
8.27

Hi! Can you tell me pIC50 for each of these molecules?
1. COc1cc(-c2cc3[nH]c(=O)n(-c4cncc5ccn(C)c45)c(=O)c3cc2OC)c(C#N)cc1F
2. Cc1noc(C)c1-c1cc2[nH]c(=O)n(-c3cncc4cnn(C)c34)c(=O)c2s1
3. Cc1noc(C)c1-c1cc2c(s1)c(=O)n(-c1cncc3cnn(C)c13)c(=O)n2CCC#N
4. Cc1cc(-c2cccc(Cl)c2-c2cc3[nH]c(=O)n(-c4cncc(C5CC5)c4)c(=O)c3s2)cnn1

[8.05, 6.15, 6.27, 8.01]

Can you share its pIC50? I mean this molecule: COc1cc(-c2cc3c(s2)c(=O)n(-c2cncc4nnn(C)c24)c(=O)n3CCC#N)c(Cl)cc1F [Example 936]
8.26

----------
# System: SARS-CoV-2-NLuc
# assay.remarks: microbe, parasite or virus in culture
# Assay type: cell-based, SARS Coronavirus 2
# reported.conditions: Severe acute respiratory syndrome coronavirus, 48 h; read-out: MPro EC50
Consider the following molecules; for each one, report its EC50.
One number for each entry, in nM.

Please review the entries below; each comes with its answer.
Can you share its EC50? I mean this molecule: Cc1cncc(-n2c(=O)c3sc(-c4ccccc4C#N)cc3n(CC3(C#N)CC3)c2=O)c1
7.09

Can you share its EC50? I mean this molecule: O=c1[nH]c2cc(-c3ccccc3Cl)sc2c(=O)n1-c1cncc2ccc(F)cc12
39.3

Can you share its EC50? I mean this molecule: COc1ccc(Cl)c(-c2cc3[nH]c(=O)n(-c4cncc5ccc(F)cc45)c(=O)c3s2)c1
30

Can you share its EC50? I mean this molecule: Cn1nnc2cncc(-n3c(=O)c4sc(-c5cc(F)c(F)cc5Cl)cc4n(CCC#N)c3=O)c21
124

Can you share its EC50? I mean this molecule: COc1ccc(Cl)c(-c2cc3[nH]c(=O)n(-c4cncc5nn(CC(F)(F)F)cc45)c(=O)c3s2)c1
93.9

Hi! Can you tell me EC50 for each of these molecules?
1. COc1ccc(Cl)c(-c2cc3[nH]c(=O)n(-c4cncc5ccc(N6CCO[C@H](C(F)(F)F)C6)cc45)c(=O)c3s2)c1
2. O=c1[nH]c2cc(-c3ccccc3Cl)ccc2c(=O)n1-c1cncc(C2CC2)c1
3. COc1cc(-c2cc3c(s2)c(=O)n(-c2cncc4cnn(C)c24)c(=O)n3CC2(C#N)CC2)c(Cl)cc1F
4. COc1ccc(Cl)c(-c2cc3[nH]c(=O)n(-c4cncc5sc(C#N)c(C)c45)c(=O)c3s2)c1
5. Cc1cnc(F)c(-n2c(=O)c3sc(-c4ccccc4Cl)cc3n(CCC#N)c2=O)c1

26.6
652
1.14
25.5
6.03

Hi! Can you tell me EC50 for each of these molecules?
1. COc1ccc(Cl)c(-c2ccc3c(=O)n(-c4cncc5ccc(N6CC7(CNC(=O)C7)C6)cc45)c(=O)[nH]c3c2)c1
2. CC(C)(C)c1cncc(-n2c(=O)[nH]c3cc(-c4ccccc4Cl)ccc3c2=O)c1
3. O=c1[nH]c2cc(-c3ccccc3)cnc2c(=O)n1-c1cncc2ccccc12
4. COc1cc(-c2cc3c(s2)c(=O)n(-c2cncc4ccccc24)c(=O)n3CC#N)c(Cl)cc1F

1. 221
2. 42600
3. 4510
4. 9.35
